- Test system: Lettuce seeds
- test description: Filter paper bioassay on germination and early development of Lettuce seeds
- Type: in vivo
- condition context: 144 h, lowest concentration causing malformation of radicle or shoots; visually assessed six days after beginning; 0 to 1 mmol/l; read-out: MEC, score (Minimal Effective Concentration, activity score) (converted)
// reported minimal effective concentration per item
Supply the numeric figure in µM, leaving out any unit text.

Below are worked cases with known answers.
INSERT INTO assay_data (molecule, experimental_readout, readout_value) VALUES
  ('O=C(Cc1ccccc1)NCCCNc1cccc(Br)n1 [compound 7121]', 'minimal effective concentration', 10),
  ('CCCCOC(=O)CSc1nc(Cl)ccc1Br [compound 6694]', 'minimal effective concentration', 1),
  ('O=C(O)CS(=O)(=O)c1nc(Cl)sc1Cl [compound 7138]', 'minimal effective concentration', 10);

I am curious: what minimal effective concentration value has been reported for O=C(O)C[S+]([O-])c1nc(Cl)sc1Cl (centres unmarked) [compound 7137] ?
10

Next record, please: O=C(O)CCCCNc1nc(Br)c(Br)cc1F [compound 7170]
1

Next record, please: O=C(O)CCSc1ccc(Br)c(Br)n1 [compound 7178]
1

====

// reported Average Herbicidal Effect, score per item
- System: Trifolium
- test description: Post-emergence herbicidal effect on potted weeds
- Type: in vivo
- condition context: 2-3 true leaves, up to 5 mg/pot, scale 0 (dead plants) to 5 (healthy, as control)
Write no unit; give the number alone.

Below are worked cases with known answers.
INSERT INTO results (record_smiles, readout_value) VALUES
  ('O=C(O)COc1ccc(F)c(Br)n1', 2),
  ('CCOC(=O)COc1ccc(F)c(Br)n1', 2),
  ('CCOCCOCCOC(=O)COc1ccc(F)c(Br)n1', 2);

Next:
Lab request: please report Average Herbicidal Effect, score under test system Trifolium for CCOC(=O)CSc1ccc(F)c(Br)n1
4

====

- System: Amaranth
- test description: Post-emergence herbicidal effect on potted weeds
- Assay type: in vivo
- condition context: 2-3 true leaves, up to 5 mg/pot, scale 0 (dead plants) to 5 (healthy, as control)
// reported Average Herbicidal Effect, score per item
Write no unit; give the number alone.

Below are worked cases with known answers.
INSERT INTO measurements (record_smiles, experimental_readout, readout_value) VALUES
  ('CCOC(=O)COc1ccc(F)c(Br)n1', 'Average Herbicidal Effect, score', 1),
  ('O=C(O)COc1ccc(F)c(Br)n1', 'Average Herbicidal Effect, score', 0);

Lab request: please report Average Herbicidal Effect, score under test system Amaranth for CCOCCOCCOC(=O)COc1ccc(F)c(Br)n1
1

Next record, please: CCOC(=O)CSc1ccc(F)c(Br)n1
3

====

// reported Average Herbicidal Effect, score per item
- Tested on: Silybum
- test description: Post-emergence herbicidal effect on potted weeds
- Format: in vivo
- condition context: 2-3 true leaves, up to 5 mg/pot, scale 0 (dead plants) to 5 (healthy, as control)
Write no unit; give the number alone.

INSERT INTO assay_data (record_smiles, system_tested, experimental_readout, readout_value) VALUES
  ('CCOCCOCCOC(=O)COc1ccc(F)c(Br)n1', 'Silybum', 'Average Herbicidal Effect, score', 1),
  ('CCOC(=O)CSc1ccc(F)c(Br)n1', 'Silybum', 'Average Herbicidal Effect, score', 5),
  ('CCOC(=O)COc1ccc(F)c(Br)n1', 'Silybum', 'Average Herbicidal Effect, score', 1);

Next:
I am curious: what Average Herbicidal Effect, score value has been reported for O=C(O)COc1ccc(F)c(Br)n1 ?
1

All figures here come from patent US20250374926A1.
